Reported values of pIC50 for individual entries
Biological target: Tyro3 (Homo sapiens, UniProt Q06418)
Sequence (Q06418 41-890): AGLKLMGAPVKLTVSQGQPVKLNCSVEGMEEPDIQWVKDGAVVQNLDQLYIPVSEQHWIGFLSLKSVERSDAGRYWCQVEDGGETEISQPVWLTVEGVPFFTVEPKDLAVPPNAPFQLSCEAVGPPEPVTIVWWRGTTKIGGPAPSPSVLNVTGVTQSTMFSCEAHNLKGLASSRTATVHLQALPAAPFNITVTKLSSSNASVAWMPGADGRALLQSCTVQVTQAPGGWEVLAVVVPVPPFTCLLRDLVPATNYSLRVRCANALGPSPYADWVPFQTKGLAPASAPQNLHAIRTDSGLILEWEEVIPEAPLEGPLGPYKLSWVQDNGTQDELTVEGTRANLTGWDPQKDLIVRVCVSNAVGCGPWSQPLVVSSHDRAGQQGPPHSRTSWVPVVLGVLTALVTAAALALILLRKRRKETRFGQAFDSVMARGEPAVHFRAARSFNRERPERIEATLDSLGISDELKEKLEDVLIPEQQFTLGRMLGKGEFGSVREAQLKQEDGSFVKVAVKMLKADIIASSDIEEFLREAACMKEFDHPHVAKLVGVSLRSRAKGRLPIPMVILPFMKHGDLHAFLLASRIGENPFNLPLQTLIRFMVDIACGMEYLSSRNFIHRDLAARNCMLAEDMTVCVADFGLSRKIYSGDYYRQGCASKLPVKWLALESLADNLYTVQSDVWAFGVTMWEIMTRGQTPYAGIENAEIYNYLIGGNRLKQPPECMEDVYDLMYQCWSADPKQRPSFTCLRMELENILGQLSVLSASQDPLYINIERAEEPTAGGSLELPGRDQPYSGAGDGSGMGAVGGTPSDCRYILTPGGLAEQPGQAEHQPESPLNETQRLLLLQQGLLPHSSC
Assay: Tyro3 kinase inhibition IC50
Type: biochemical
Conditions: Table 3; read-out: Tyro3 IC50
pIC50: −log10 of the molar value.
Metric Name: pIC50

>>> reported_result("CC(C)C(=O)Nc1ccnc(C#Cc2ccc(Nc3ncc(-c4ccc(CN5CCN(C)CC5)cc4)c(N[C@H]4CC[C@H](O)CC4)n3)cc2)c1 [UNC3870A]")
"> 8.00"
>>> reported_result("O=S(=O)(c1ccc(-c2cnc(Nc3ccc(C#Cc4cc(C5OCCO5)ccn4)cc3)nc2N[C@H]2CC[C@H](O)CC2)nc1)N1CCOCC1 [UNC3619A]")
"> 8.00"
>>> reported_result("CC(C)C(=O)Nc1ccnc(C#Cc2ccc(Nc3ncc(-c4ccccn4)c(N[C@H]4CC[C@H](O)CC4)n3)cc2)c1 [UNC4042A]")
"> 8.00"
>>> reported_result("CC(C)C(=O)Nc1ccnc(C#Cc2ccc(Nc3ncc(-c4ccc(CN5CCN(C)CC5)cc4)c(N[C@H]4CC[C@H](O)CC4)n3)cc2F)c1 [UNC4045A]")
"> 8.00"
>>> reported_result("CN(C)C(=O)c1ccnc(C#Cc2ccc(Nc3ncc(-c4ccccn4)c(N[C@H]4CC[C@H](O)CC4)n3)cc2)c1 [UNC3459A]")
"> 8.00"
>>> reported_result("CC(=O)Nc1ccnc(C#Cc2ccc(Nc3ncc(-c4ccc(CN5CCN(C)CC5)cc4)c(N[C@H]4CC[C@H](O)CC4)n3)cc2)c1 [UNC3874A]")
"7.00 to 8.00"
